Test system: SW-620 colon
Assay: NCI-60 one-dose screen, 48 h (100 = growth as untreated, 0 = no growth, -100 = all killed)
Settings: 10 µM
The panel holds about 83,000 compounds, 20% with a hit somewhere; the sample as a whole holds those more often.
METRIC_NAME: growth (%)
Express it in %; write the number only.

Solved entries (count: 10):
[[record]]
molecule = "CN(C)N=Nc1nn(C(=O)Nc2ccc(Cc3ccccc3)cc2)c2ccccc12"
unit_name = "%"
value_measured = 34.4

[[record]]
molecule = "Cc1nc2ccccc2c(N)c1-c1cc(C)c2c(C)nc3ccccc3c2n1"
unit_name = "%"
value_measured = -65.7

[[record]]
molecule = "Clc1ccc(Nc2ccnc(NCCNc3ccnc4cc(Cl)ccc34)n2)cc1"
unit_name = "%"
value_measured = -10.5

[[record]]
molecule = "Fc1cc(C(F)(F)F)ccc1-c1cncnc1NC1CCCCCC1"
unit_name = "%"
value_measured = 101

[[record]]
molecule = "CCOCC(=O)C(C#N)c1ccc(Cl)c(Cl)c1 (stereo not given)"
unit_name = "%"
value_measured = 102

[[record]]
molecule = "O=S(=O)(Nc1ccccn1)c1ccc(N=Nc2ccc(O)c3ncccc23)cc1"
unit_name = "%"
value_measured = 11.7

[[record]]
molecule = "CC(=O)c1cc(Cl)ccc1O"
unit_name = "%"
value_measured = 95.9

[[record]]
molecule = "CCOC(=O)N1C/C(=C/c2ccc(OC)cc2)C(=O)/C(=C/c2ccc(OC)cc2)C1"
unit_name = "%"
value_measured = -38.7

[[record]]
molecule = "COc1ccc(OC)c(/C=C/c2nnc(Nc3ccc(Cl)cc3)o2)c1"
unit_name = "%"
value_measured = 66.7

[[record]]
molecule = "Cc1cc(N(CCCNc2ccnc3cc(Cl)ccc23)Cc2ccc3c(c2)OCO3)nc(N2CCCCC2)n1"
unit_name = "%"
value_measured = -39.4


Complete the entry with growth for O=C(CC(C(=O)c1ccccc1)N1CCOCC1)c1ccccc1 (stereo not given)
60.8

Complete the entry with growth for NC1=NC(=O)C(c2ccccc2)(c2ccccc2)S1
108

Complete the entry with growth for CC1(C)OC2=C(CC1Br)C(=O)C(=O)c1ccccc12 (stereo not given)
-81.5

Complete the entry with growth for COc1ccc2c(c1OC)O/C(=C\c1ncc([N+](=O)[O-])n1C)C2=O
-21.2

Complete the entry with growth for O=C(CSSCC(=O)c1ccc(Cl)cc1)c1ccc(Cl)cc1
51.1

Complete the entry with growth for Nc1nc(N)c2c(ccc3nccc32)[nH]1
29.4

Complete the entry with growth for N#Cc1cccc(OCc2nc(N)nc(N)c2-c2ccc(Cl)c(Cl)c2)c1
17.9

Complete the entry with growth for COc1cc(OC)cc(-c2cncn2-c2ccc(-c3nc4cc(OC)cc(OC)c4s3)cc2)c1
48.2

Complete the entry with growth for O=C1OCC2=C1C(c1cccc(Cl)c1)c1cc3c(cc1N2CCO)OCO3 (stereo not given)
21.3

Complete the entry with growth for Cc1cccc(NC2=C(C#N)C(=O)NC3(CCCC3)S2)c1
103

Complete the entry with growth for O=C1CC[C@@H]2CCCC[C@@H]2C1
108

* * *

System: HCC-2998 colon
Assay: NCI-60 one-dose screen, 48 h
Conditions: 10 µM
Method: Growth inhibition of the HCC-2998 human tumor cell line is measured as a screen for anti-cancer activity. Cells are grown in 96 well plates and exposed to the test compound for 48 hours. Compounds are tested at a single concentration, which is 10^-5 M for most compounds. The reported endpoint is percent growth (GI% or GIPRCNT), where numbers from 0 - 100% represent growth inhibition, and numbers from -100% - 0 represent cell death. For example, a value of 40 represents 60% growth inhibition. […]
The panel holds about 83,000 compounds, 20% with a hit somewhere; the sample as a whole holds those more often. Activity calls are given as the source filed them. Rule for the calls: active = growth percent below 10; inactive = the rest.
Respond only with the outcome that fits, drawn from class 1 = active, class 0 = inactive

[[record]]
molecule = "O=C(Nc1cccc(Cl)c1)Nc1nccs1"
category = "class 0"

[[record]]
molecule = "Cc1ccc(NC(=O)Nc2cccnc2)cc1NC(=O)Nc1cccnc1"
category = "class 0"

[[record]]
molecule = "COc1cc(-c2cc(/C=C3\\C(=O)Nc4ccccc43)[nH]n2)cc(OC)c1OC"
category = "class 0"

[[record]]
molecule = "FC(F)(F)c1ccc2nc(-c3nc(-c4ccccc4)n4ccccc34)[nH]c2c1"
category = "class 0"

[[record]]
molecule = "Cc1ccc(C)c(C(O)(c2cc(C)ccc2C)C2(O)CCCCC2)c1"
category = "class 0"

[[record]]
molecule = "O=C(Nc1cccc(-n2cc(-c3ccncc3)c(-c3ccc(O)c(Cl)c3)n2)c1)c1ccc(Cl)c(Cl)c1"
category = "class 0"

[[record]]
molecule = "CC(C)C[C@H](NC(=O)[C@H](Cc1cccc2ccccc12)NS(=O)(=O)c1cccc2cccnc12)B(O)O"
category = "class 1"

[[record]]
molecule = "COc1cc2cc3c(nc2cc1OC)CCN3Cc1ccc(NC(=O)Nc2cc(C(F)(F)F)cc(C(F)(F)F)c2)cc1"
category = "class 0"

[[record]]
molecule = "O=C1c2ccc3c4c(ccc(c24)C(=O)N1CCNCc1ccccc1)C(=O)N(CCNCc1ccccc1)C3=O"
category = "class 1"

[[record]]
molecule = "COc1ccc(-c2nc(-c3nc4cc(Cl)c(F)cc4[nH]3)c3ccccn23)cc1"
category = "class 0"


What classification did COc1cc(/C=N/NC(=O)c2ccccc2Nc2ccnc(C(F)(F)F)c2)ccc1O end up with in this test?
class 0

What classification did Nc1ccccc1NC(=O)CCCCC(=O)Nc1ccc2c(c1)/C(=C/c1ccc[nH]1)C(=O)N2 end up with in this test?
class 0

What classification did COc1ccc(-c2nc3sc(C4CC4)nn3c2/C=C2/C(=O)Nc3ccc(OC)cc32)cc1 end up with in this test?
class 0

What classification did N=C(N)c1ccc(-c2ccc(-c3cccs3)s2)s1 end up with in this test?
class 1

What classification did COc1ccc(C2CC(c3ccc(N(C)C)cc3)=NN2c2ccc(S(N)(=O)=O)cc2)cc1 (stereo not given) end up with in this test?
class 0

What classification did COC(=O)C1(C)Cc2cc(OC(C)=O)c(OC(C)=O)cc2N1 (stereo not given) end up with in this test?
class 0

What classification did O=C(Nc1ccc(Cl)cc1)N1NC(c2ccc(Cl)cc2)C=C1c1ccccc1 (stereo not given) end up with in this test?
class 0

What classification did NC(=S)N=Nc1c(O)c2ccccc2c2ccccc12 end up with in this test?
class 0

What classification did CCCCCCCCCCCCCC[n+]1ccc(C(N)=O)cc1 end up with in this test?
class 1

What classification did CCCCOc1ccc(NC(=O)Nc2nnc(C)s2)cc1 end up with in this test?
class 0

* * *

Tested on: A498 renal
Experiment: NCI-60 one-dose screen, 48 h (100 = growth as untreated, 0 = no growth, -100 = all killed)
Settings: 10 µM
Description: Growth inhibition of the A498 human tumor cell line is measured as a screen for anti-cancer activity. Cells are grown in 96 well plates and exposed to the test compound for 48 hours. Compounds are tested at a single concentration, which is 10^-5 M for most compounds. The reported endpoint is percent growth (GI% or GIPRCNT), where numbers from 0 - 100% represent growth inhibition, and numbers from -100% - 0 represent cell death. For example, a value of 40 represents 60% growth inhibition. […]
About 83,000 compounds went through this panel and 20% of them were active in at least one assay; those are over-represented in the sample as a whole.
METRIC_NAME: growth (%)
Express it in %; write the number only.

Solved entries (count: 2):
[[record]]
test_smiles = "COc1cc(C)ccc1C(=O)c1ccc(C)cc1OC"
unit_name = "%"
value_measured = -4.5

[[record]]
test_smiles = "CC(=O)O[C@]1(C)CC[C@H]2[C@H](CNCCc3ccc(Cl)cc3)C(=O)O[C@@H]2C2=C(C)C(=O)C[C@H]21"
unit_name = "%"
value_measured = 86.9


Next compound, please.
Report the value of growth obtained on A498 renal for Nc1nccc(Nc2ccccc2)n1 .
97.3

* * *

System: LOX IMVI melanoma
Test: NCI-60 one-dose screen, 48 h (100 = growth as untreated, 0 = no growth, -100 = all killed)
Conditions: 10 µM
About 83,000 compounds went through this panel and 20% of them were active in at least one assay; those are over-represented in the sample as a whole.
Note to self: values exactly at 90% are T. So growth at or above 90% is T, below is F.

Study these solved cases before continuing.
[[record]]
compound = "COc1cc(C(=O)/C=C/c2cc(-c3cc(OC)c(OC)c(OC)c3)n[nH]2)cc(OC)c1OC"
category = "F"

[[record]]
compound = "CO/N=C(/C(=O)NC1C(=O)N2C(C(=O)O)=C(COC(N)=O)CSC12)c1ccco1 (configuration not stated)"
category = "T"

[[record]]
compound = "COc1cc(Cl)cc(-c2nn(-c3cccc(NC(=O)Nc4ccc(Cl)c(Cl)c4)c3)cc2-c2ccncc2)c1"
category = "F"

[[record]]
compound = "COc1ccc2c(c1)O/C(=C\\c1ncc([N+](=O)[O-])n1C)C2=O"
category = "F"

[[record]]
compound = "CN(C)CCN1C(=O)c2cccc3cc(N)cc(c23)C1=O"
category = "F"

[[record]]
compound = "CCCCCCN(CCCCCC)CC(O)c1ccc2c3c(cccc13)CC2 (configuration not stated)"
category = "F"

[[record]]
compound = "COc1ccc(-c2nc3ccccn3c2-c2nnc(-c3cc(OC)c(OC)c(OC)c3)o2)cc1"
category = "F"

[[record]]
compound = "O=C(c1cccs1)c1ccccc1Cc1ccccc1"
category = "T"


Hello, I need to know if N#CCCN1C/C(=C/c2ccc(Cl)cc2)C(=O)/C(=C/c2ccc(Cl)cc2)C1 has measured growth not below 90%. Thanks!
F

Hello, I need to know if COc1ccc(-c2nn(-c3cccc(NC(=O)c4cc(C(F)(F)F)cc(C(F)(F)F)c4)c3)cc2-c2ccncc2)cc1Cl has measured growth not below 90%. Thanks!
F

Hello, I need to know if CCN1CCCC1CNC(=O)c1ncc(-c2ccc(C(F)(F)F)cc2)c(NC2CCCCCC2)n1 (configuration not stated) has measured growth not below 90%. Thanks!
F

Hello, I need to know if COc1ccc(/C=C/C(=O)Nc2ccc(-c3nc4ccc(F)cc4s3)cc2)cc1 has measured growth not below 90%. Thanks!
T

Hello, I need to know if NC(=O)SCC(=O)Nc1ccc(S(N)(=O)=O)cc1 has measured growth not below 90%. Thanks!
T

Hello, I need to know if C#Cc1ccc(-n2c(/C=C/c3ccc4ccccc4n3)nc3ncccc3c2=O)cc1 has measured growth not below 90%. Thanks!
F

Hello, I need to know if Oc1[nH]c2ccc(Cl)cc2c1/C=c1/ccc2c(c1)N=C(c1cc(F)cc(F)c1)N=2 has measured growth not below 90%. Thanks!
F

Hello, I need to know if CCOC(=O)C(NC(=O)C(Cl)Cl)C(O)c1ccccc1 (configuration not stated) has measured growth not below 90%. Thanks!
T

Hello, I need to know if O=C(C[P+](c1ccccc1)(c1ccccc1)c1ccccc1)C[P+](c1ccccc1)(c1ccccc1)c1ccccc1 has measured growth not below 90%. Thanks!
F

Hello, I need to know if CCOC(=O)C1(CC(C)C)CCOC1=O (configuration not stated) has measured growth not below 90%. Thanks!
T

Hello, I need to know if Cc1ccc(-c2nc(/C=C3/C(=O)N(C)c4ccc(F)cc43)c3ccccn23)cc1 has measured growth not below 90%. Thanks!
T
